- tgt: T1, human Siglec-5 expressed on human primary cells (human, UniProt O15389 17-551)
- T1 construct: Endogenous receptor on human primary monocytes, dendritic cells, macrophages and neutrophils; also called CD170
- T1 sequence: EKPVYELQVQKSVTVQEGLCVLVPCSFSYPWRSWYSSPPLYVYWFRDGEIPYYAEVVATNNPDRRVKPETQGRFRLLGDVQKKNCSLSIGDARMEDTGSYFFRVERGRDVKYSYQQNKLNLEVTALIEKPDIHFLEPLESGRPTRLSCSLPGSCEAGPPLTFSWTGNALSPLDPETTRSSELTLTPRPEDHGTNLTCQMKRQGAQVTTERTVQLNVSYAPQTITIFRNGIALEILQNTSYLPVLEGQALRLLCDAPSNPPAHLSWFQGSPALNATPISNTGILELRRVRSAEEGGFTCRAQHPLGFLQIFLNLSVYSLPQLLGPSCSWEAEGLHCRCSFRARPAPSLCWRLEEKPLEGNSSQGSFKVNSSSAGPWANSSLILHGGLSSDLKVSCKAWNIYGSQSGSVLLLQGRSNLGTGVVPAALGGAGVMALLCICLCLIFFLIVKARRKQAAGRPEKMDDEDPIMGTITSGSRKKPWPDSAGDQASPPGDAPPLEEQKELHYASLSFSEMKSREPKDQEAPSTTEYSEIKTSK
- protocol_summary: flow cytometry, human primary macrophages, 10 ug/ml mAb
endpoint_name: MFI
Lab note: jot the number down without any unit.

[
  {
    "binder": "anti-Siglec-5 monoclonal antibody 11H3 (antibody, IgG1, V domains shown) VH: QVQLQQSGPELVKPGASVKVSCKASDYAFTSYNIYWVKQSHGKSLEWIGYIDPYNGGTSYNQTFKGKATLTVDKSSSTAYMHLNSLTSEDSAVYYCAMKVGYEAMDYWGQGTSVTVSS VL: DIQMTQSQKFMSTSVGDRVSVTCKASQNVGTNVAWYQQKPGQSPKALIYSASYRYSGVPDRFTGSGSGTDFTLNISNVQSEDLAEYFCQQFNSYPYTFGGGTKLEIK",
    "MFI": 444
  },
  {
    "binder": "anti-Siglec-5 monoclonal antibody 10B6 (antibody, IgG1, V domains shown) VH: EIQLQQSGPELVKPGASVKVSCKASGYSFTDYNMYWVKQSHGKSLECFGYIDPYNGGPYYNQKFKGKATLTVDKSSSTAFMHLNSLTSEDSAVYYCAFYYGYYGVPYWGQGTLVTVSA VL: DIVMTQSQKFMSTSVGDRVSVTCKASHNVGTSVAWYQQKPGQSPKSLIYSASYRYSGVPDRFTGSGSGTDFTLTISNVQSEDLAEYFCQQYNSYPLTFGSGTKLEIK",
    "MFI": 581
  }
]

Any idea what MFI was measured for anti-Siglec-5 monoclonal antibody 2G5 (antibody, IgG1, V domains shown) VH: EIQLQQSGPELVKPGASVKVSCKASGYSFTDYNMYWVKQSHGKSLEWIGYIDPYNGNTTYNQRFKGKATLTVDKSSSTAFMHLNSLTSEDAAVYYCATFYGFDGFAYWGQGSLVAVSA VL: QAVVTQESALTTSPGETVTLTCRSSTGAVTTSNYANWVQEKPDHLFTGLIGTTNNRAPGVPARFSGSLIGDKAALTITGAQTEDEAIYFCALWYSNHLVFGGGTKLTVLG ?
569

Any idea what MFI was measured for anti-Siglec-5 monoclonal antibody 9B1 (antibody, IgG1, V domains shown) VH: QVQLQQSGAELVKPGASVKLSCKASGYTFTEYTIHWVKQRSGQGLEWIGWFYPGSGSIKYNEKFKDKATLTADKSSSTVYMELSRLTSEDSAVYFCARQEEGGIGFDYWGQGTTLTVSS VL: DVLMTQTPLSLLVSLGDQASISCRSSQSIVHSNGNTYLEWYLQKPGQSPKLLIYKVSIRFSGVPDRFSGSGSGTDFTLKISRVEAEDLGVYYCFQGSHVPWTFGGGTKLEIK ?
560
